test system: MS2 coat protein; assay: apparent KD of MS2 coat protein; designed switch direction (-1 OFF switch, 1 ON switch): 1; higher = weaker reporter binding; conditions: input ligand: none
Measured Metric: apparent KD of MS2 coat protein (µM)
Return type: number; implicit unit µM.

Ask: Report apparent KD of MS2 coat protein for GGCCAGAGUCAAGGAUAUGCUACCGUUUCGGUAGCAGAAGGUGAUCACAUGAGGAUCACCCAUGUAUACGCUGGAAAGCGGGCC [JL SSNG1 3.64] (Eterna round: R96, puzzle: Same State NG 1) please.
Reply: 1.43

Ask: How about this sequence: UUAAUGAUGUAAGGAUAUACAUGAGGAUUUCUCGUAGAAGGUACAGGACAUGAGGAUCACCCAUGUGUCGCUCAGAAGAGCGUA [Mat - Same State NG 1 - JL mod - D17] (Eterna round: R96, puzzle: Same State NG 1)
Reply: 0.636

Ask: Now the sequence UUGCGGGCUUGAGGAUAUUGAGUACAUAUGUUUAACAUGAGGAUCACCCAUGUGGGUUGCGGUAUCGAGAAGGUAGCUUCCUGC [salish99_SSNG2_r04_812] (Eterna round: R96, puzzle: Same State NG 2)
Reply: 0.0791

Ask: For AUAGUUGCCGAAGGAUAUGAUGAGGAUCACCCAUCAGAAGGUUGGCUAUUGGGUGGACAUGAGGAUCACCCAUGUUCUUUGGUA (Eterna round: R96, puzzle: Same State NG 1) then?
Reply: 0.14

Ask: Can you check AGAUGUUAAUUAGGAUAUGGGCACAUGAGGAUCACCCAUGUAUUUUCGAUGCUAUGUGGAGACGUCUAGAAGGGAUGGCUAACA [SameState NG2 #87] (Eterna round: R96, puzzle: Same State NG 2) next?
Reply: 0.142

Ask: Now give it for AUAAGGCAAGCUUUUUUCUCGUAGUGUAAACAUGAGGAUCACCCAUGUGCCCACCCUGGAUCUUUGGAUCGCGGAAC [Raxesori] (Eterna round: R96, puzzle: Sensor for hsa-mir-208a) too.
Reply: 0.0905

Ask: Field entry: GUUCGUUUGAUAGGAUAUCGCUUAACAUGAGGAUCACCCAUGUUUACCACGCUGGUUUUUCGUACCGAGAAGGAUUCUGAUGAU [JL JR sub007 mod 1] (Eterna round: R96, puzzle: Same State NG 2)
Reply: 0.0471

Ask: Proceed to AUCCGGAAGCGAGGAUAUGCAGAGGAUCACCCUGCAGAAGGCGCAAAAGCGAGGAUAUGCAGAGGAUCACCCUGCAGAAGGCGC [pwkr ssNG DX.28] (Eterna round: R96, puzzle: Same State NG 1)
Reply: 0.0421

Ask: What would you report for CAGCUCGUGUGAGGAUAUGCCGCCGUUUCGGCUGCAGAAGGUGCUACGUUACAUGAGGAUCACCCAUGUCUCUGUUGUUUCGUG [salish99_SSNG1_r04_963] (Eterna round: R96, puzzle: Same State NG 1) ?
Reply: 0.0232

Ask: Item: GGCGAACAGGCUAACAUGAGGAUCACCCAUGUGGACUUCGUGUAGGAUAUCGGGAAGGAGGAAACCGAGAAGGGCAAAGAAGCC [AK SSNG3-V2-49] (Eterna round: R96, puzzle: Same State NG 3)
Reply: 0.0937

Ask: Now try GGCCGGCCGAACGGAGGGCCACAUGAGGAUCACCCAUGUACAUAGGAUAUCAUGUCAACGAGGCAUGAGAAGGGUGAUUAAAGC [Orenriaran] (Eterna round: R96, puzzle: Same State NG 3) .
Reply: 0.0577

Ask: Repeat for the following sequence: AGAUGUUAAUUAGGAUAUGGACACAUGAGGAUCACCCAUGUAACGAAGAUACGAUGUGGUCAAGUCUAGAAGGGAUAGCUAACA [SameState NG2 #75] (Eterna round: R96, puzzle: Same State NG 2)
Reply: 0.039

Ask: Can you check ACGCUCCAUGGAGGAUAUGGGCCUGCCCGGGAUACCGGGCCUAACACAUGAGGAUCACCCAUGUCCCAGAAGGCCGCUGGAGCC [Atgeenbite] (Eterna round: R96, puzzle: Same State NG 2) next?
Reply: 0.0987

Ask: Same lookup for GGAUGAUAGAUAGGAUAUUGAUUGUAAUUAUGUCAAGAAGGAUCUUUGAUUUAAACGACCAGUUACAUGAGGAUCACCCAUGUU [JR_SSNG1_Sub087] (Eterna round: R96, puzzle: Same State NG 1) , please.
Reply: 0.0436

Ask: Could you do the same for GCGAAAGCGGUAGGAUAUCUAGGAUAUGGGAAGAGCUAAGCUUGGAAGUCACUUCACCCAGAAGGAGAGAAGGACACCGAAAGG [pwkr ssNG2 2FMN + F9.3] (Eterna round: R96, puzzle: Same State NG 2) , please?
Reply: 0.39

Ask: How about this sequence: GGUCCAGCCUGAGCUGGACAAAAGCAUGUACAUGAGGAUCACCCAUGUCAUGUACAAGCUUUUUGCUCGUCUUAAAA [Mat - Sensor - JL mod - D87] (Eterna round: R96, puzzle: Sensor for hsa-mir-208a)
Reply: 0.573

Ask: Same again, this time with CUUUUUAAUGCAGGAUAUGAUCAACAUGAGGAUCACCCAUGUGGCGUUGUGAGUAGGGAGAGUGAUCAGAAGGGCGUCUCCUCG [SS-NG2-LRO09] (Eterna round: R96, puzzle: Same State NG 2)
Reply: 0.0566

Ask: Thanks! And GAGCUCCAACGCGGAGCUCCACAUGAGGAUCACCCAUGUACACAGGAUAUCACUCCCUUUGGGAGUGAGAAGGGUGGUUCGGAA [Bebeave] (Eterna round: R96, puzzle: Same State NG 3) ?
Reply: 0.0586

Data origin, for the record: the supplement of paper PMC9170038
